src = paper PMC4336329

# test target: human ether-à-go-go-related gene (hERG) potassium channel (human)
# Sequence (Q12809 whole entry, looked up): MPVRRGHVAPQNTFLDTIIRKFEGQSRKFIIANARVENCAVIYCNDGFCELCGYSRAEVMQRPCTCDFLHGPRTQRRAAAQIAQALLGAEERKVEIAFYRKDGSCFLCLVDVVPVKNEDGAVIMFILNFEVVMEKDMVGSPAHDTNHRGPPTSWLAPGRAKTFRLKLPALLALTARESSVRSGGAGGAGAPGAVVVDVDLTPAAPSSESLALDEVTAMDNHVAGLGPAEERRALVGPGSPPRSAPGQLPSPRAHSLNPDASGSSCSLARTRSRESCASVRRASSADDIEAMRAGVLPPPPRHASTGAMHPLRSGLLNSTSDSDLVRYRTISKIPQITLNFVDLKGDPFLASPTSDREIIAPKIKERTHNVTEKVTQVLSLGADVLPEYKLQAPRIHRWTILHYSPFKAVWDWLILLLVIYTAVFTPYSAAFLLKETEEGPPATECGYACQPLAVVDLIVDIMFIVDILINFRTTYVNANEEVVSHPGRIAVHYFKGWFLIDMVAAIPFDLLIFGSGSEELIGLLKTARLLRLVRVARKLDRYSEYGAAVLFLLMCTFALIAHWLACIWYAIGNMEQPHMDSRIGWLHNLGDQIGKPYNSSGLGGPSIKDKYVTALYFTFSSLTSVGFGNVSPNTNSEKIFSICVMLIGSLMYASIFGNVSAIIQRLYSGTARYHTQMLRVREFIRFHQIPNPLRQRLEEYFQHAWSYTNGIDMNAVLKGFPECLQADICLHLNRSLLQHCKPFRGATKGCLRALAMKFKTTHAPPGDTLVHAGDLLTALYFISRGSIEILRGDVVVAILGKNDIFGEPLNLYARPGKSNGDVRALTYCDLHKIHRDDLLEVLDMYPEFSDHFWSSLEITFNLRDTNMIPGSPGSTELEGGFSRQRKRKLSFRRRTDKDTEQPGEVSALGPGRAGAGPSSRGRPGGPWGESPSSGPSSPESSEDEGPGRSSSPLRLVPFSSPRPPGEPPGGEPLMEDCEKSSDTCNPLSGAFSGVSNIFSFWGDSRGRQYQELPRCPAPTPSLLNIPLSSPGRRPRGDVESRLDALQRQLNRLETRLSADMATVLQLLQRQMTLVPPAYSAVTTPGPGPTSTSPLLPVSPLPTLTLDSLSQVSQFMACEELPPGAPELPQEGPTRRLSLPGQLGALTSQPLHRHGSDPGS
# test: primary screen, population patch clamp on CHO cells stably expressing hERG; higher = less effect of the substance
Hit rate of the full screen: of about 310,000 compounds, about 2,200 (0.71%) showed an effect of 50% or more. Effects have a minus sign here. Only a selection was taken, and strong results are over-represented in it overall.
Lab note: compare hERG current change (%, negative = inhibition) at 1uM against 10%. Equal or greater, write TRUE. Smaller, write FALSE.

Below, 4 compounds whose answers are already recorded.
O=C(/C=C/c1ccccc1Cl)N1CCN(c2ncccn2)CC1	FALSE
C/C=C(\C)C(=O)NCCN1C2=NC[C@H](C)N2C[C@@H]1Cc1ccc(OC)cc1	FALSE
Cc1ccc(C(=O)N[C@@H](C)CN2C3=NC[C@H](Cc4ccccc4)N3C[C@H]2Cc2ccc(O)cc2)cc1Br	FALSE
C/C=C(\C)C(=O)NCCN1C2=NC[C@H](Cc3ccc(O)cc3)N2C[C@@H]1Cc1ccc(OC)cc1	TRUE

Ask | Is the recorded value of hERG current change (%, negative = inhibition) at 1uM equal to or greater than 10% for this compound? COc1ccc(C[C@H]2CN3C(=NC[C@@H]3C(C)C)N2C[C@H](C)NC(=O)c2ccc(C)c(Br)c2)cc1
Reply | FALSE

Ask | Proceed to COC(=O)/C(=C1/Oc2cc(C)oc(=O)c2S1)C(F)(F)F
Reply | TRUE

Ask | Proceed to O=C(/C=C/c1cccc(F)c1)N1CCN(c2ncccn2)CC1
Reply | TRUE

Ask | Proceed to O=c1c2ccccc2ncn1-c1ccc2c(c1)OCCO2
Reply | FALSE

Ask | Proceed to COc1ccc(-n2cc(CNC3CCN(C)CC3)c(-c3cccc(F)c3)n2)cc1
Reply | FALSE

Ask | Proceed to O=C(/C=C/c1ccc(F)cc1)N1CCN(c2ncccn2)CC1
Reply | TRUE

Ask | Proceed to O=C(Cc1cccs1)Nc1nnc(SCc2cccc3ccccc23)s1
Reply | FALSE

Ask | Proceed to CCC(C)(C(=O)NC1CCCCC1)N(CC1CCCO1)C(=O)CNC(=O)c1ccccc1 (stereo not drawn)
Reply | FALSE

Ask | Proceed to O=C(CSc1nnc(-c2ccccn2)n1Cc1ccccc1)Nc1ccc2c(c1)OCO2
Reply | FALSE

Ask | Proceed to N=c1c2c(-c3ccccc3)c(-c3ccccc3)oc2ncn1CCN1CCOCC1
Reply | FALSE

Ask | Proceed to O=c1c2ccccc2nc(CSc2ncnc3nc[nH]c23)n1-c1cccc(C(F)(F)F)c1
Reply | FALSE

Ask | Proceed to O=C1CC(c2ccc(Cl)cc2)CC(O)=C1C=NCCO (stereo not drawn)
Reply | TRUE

Ask | Proceed to O=C(/C=C/c1c(Cl)cccc1Cl)N1CCN(c2ncccn2)CC1
Reply | FALSE

Ask | Proceed to CC12CCC(=O)N1C(C(=O)OCC(=O)Nc1cc(S(=O)(=O)N3CCCCC3)ccc1Cl)CS2 (stereo not drawn)
Reply | TRUE

Ask | Proceed to COc1ccc(C[C@H]2CN3C(=NC[C@@H]3Cc3ccc(O)cc3)N2C[C@H](C)NC(=O)c2ccc(C)c(Br)c2)cc1
Reply | FALSE
